B1: scFv; the commonest letter at each place (parent)
chain 1: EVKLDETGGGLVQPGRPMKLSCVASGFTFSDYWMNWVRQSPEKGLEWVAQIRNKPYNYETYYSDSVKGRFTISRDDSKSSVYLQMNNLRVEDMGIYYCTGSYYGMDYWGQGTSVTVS
chain 2: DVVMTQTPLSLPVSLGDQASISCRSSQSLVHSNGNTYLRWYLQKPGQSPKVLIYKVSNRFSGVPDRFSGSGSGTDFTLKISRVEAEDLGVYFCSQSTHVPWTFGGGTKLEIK

variants of: B1; experiment: yeast surface expression (ratio to wild type); higher = more expressed; settings: format: scFv 4-4-20, heavy + light
# label = 1.0 if yeast surface expression >= 0.5 else 0.0

Completed entries (count: 10):
chain 1 Y102A = 1.0
chain 1 G104F Y107Q = 0.0
chain 1 G109L = 0.0
chain 1 D106N G109N = 0.0
chain 1 Y107A G109L = 0.0
chain 1 G100C Y102A = 1.0
chain 1 W33N N35I = 1.0
chain 1 F29T Y32P = 1.0
chain 1 Y102A M105N = 1.0
chain 1 S30H W36M = 1.0

Incoming: # check: yeast surface expression of chain 1 D31Q is greater than or equal to 0.5
Outgoing: 1.0

Incoming: # check: yeast surface expression of chain 1 Y103C D106L is greater than or equal to 0.5
Outgoing: 1.0

Incoming: # check: yeast surface expression of chain 1 D106Y G109D is greater than or equal to 0.5
Outgoing: 0.0

Incoming: # check: yeast surface expression of chain 1 T28S Y32F W36H is greater than or equal to 0.5
Outgoing: 1.0

Incoming: # check: yeast surface expression of chain 1 M105S G109H is greater than or equal to 0.5
Outgoing: 0.0

Incoming: # check: yeast surface expression of chain 1 G100M M105F is greater than or equal to 0.5
Outgoing: 1.0

Incoming: # check: yeast surface expression of chain 1 T28G F29R W36P is greater than or equal to 0.5
Outgoing: 0.0

Incoming: # check: yeast surface expression of chain 1 G100N S101I is greater than or equal to 0.5
Outgoing: 0.0

Incoming: # check: yeast surface expression of chain 1 G104N W108M G109E is greater than or equal to 0.5
Outgoing: 0.0

Incoming: # check: yeast surface expression of chain 1 Y103D W108H is greater than or equal to 0.5
Outgoing: 1.0

Incoming: # check: yeast surface expression of chain 1 D31M W36A is greater than or equal to 0.5
Outgoing: 1.0

Incoming: # check: yeast surface expression of chain 1 Y103C M105L is greater than or equal to 0.5
Outgoing: 1.0

Incoming: # check: yeast surface expression of chain 1 S101H M105V is greater than or equal to 0.5
Outgoing: 1.0

Incoming: # check: yeast surface expression of chain 1 Y32G M34C is greater than or equal to 0.5
Outgoing: 1.0

Incoming: # check: yeast surface expression of chain 1 T28V W33G is greater than or equal to 0.5
Outgoing: 1.0

Incoming: # check: yeast surface expression of chain 1 G100L G104Q W108M is greater than or equal to 0.5
Outgoing: 0.0

Incoming: # check: yeast surface expression of chain 1 D31L Y32M W36M is greater than or equal to 0.5
Outgoing: 1.0

Incoming: # check: yeast surface expression of chain 1 Y102V M105Q is greater than or equal to 0.5
Outgoing: 1.0

Incoming: # check: yeast surface expression of chain 1 W36G V37N is greater than or equal to 0.5
Outgoing: 1.0
